Molecular target: T1, human BMP-11 (GDF-11; R&D Systems) (human, UniProt O95390 299-407)
T1 sequence (looked up): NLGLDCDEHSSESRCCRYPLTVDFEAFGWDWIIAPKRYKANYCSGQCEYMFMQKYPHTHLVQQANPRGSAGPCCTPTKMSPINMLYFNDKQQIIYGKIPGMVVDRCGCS
Assay: SPR format A, 25C
Measured pKd accompanies every entry in the list below.
# pKd: negative log10 of molar concentration; output just the value

The following binders have reported results that may help.
Please indicate pKd recorded for ATI-1377 [40K 2-branch PEG] (designed binder, 40K 2-branch PEG on the Cys of the EGSGC tail) MGVSDVPRDLEVVAATPTSLLISWDAPKGLARYYRITYGETGGNSPVQEFTVVGRGNTATISGLKPGVDYTITVYAVTIFRDGPVTWDPISINYRTEGSGCHHHHHH
7.85

Please indicate pKd recorded for 2524_H11 (designed binder) MGVSDVPRDLEVVAATPTSLLISWSLPHAGHAHYYRITYGETGGNSPVQEFTVPGRGVTATISGLKPGVDYTITVYAVTVSSTKVIVYLPISINYRTEIDKPSQHHHHHH
8.91

Next:
Please indicate pKd recorded for 2525_D02 (designed binder) MGVSDVPRDLEVVAATPTSLLISWTLPHAGRAHYYRITYGETGGNSPVQEFTVPGRGVTATISGLKPGVDYTITVYAVTVTTTSVILYKPISINYRTEIDKPSQHHHHHH
9.52
